TARGET DESC: EGFR Del19/T790M/C797S (Homo sapiens, UniProt P00533, C797S/DEL746-750/T790M)
Sequence (P00533 with tags, fused parts or gaps DEL746-750/T790M/C797S): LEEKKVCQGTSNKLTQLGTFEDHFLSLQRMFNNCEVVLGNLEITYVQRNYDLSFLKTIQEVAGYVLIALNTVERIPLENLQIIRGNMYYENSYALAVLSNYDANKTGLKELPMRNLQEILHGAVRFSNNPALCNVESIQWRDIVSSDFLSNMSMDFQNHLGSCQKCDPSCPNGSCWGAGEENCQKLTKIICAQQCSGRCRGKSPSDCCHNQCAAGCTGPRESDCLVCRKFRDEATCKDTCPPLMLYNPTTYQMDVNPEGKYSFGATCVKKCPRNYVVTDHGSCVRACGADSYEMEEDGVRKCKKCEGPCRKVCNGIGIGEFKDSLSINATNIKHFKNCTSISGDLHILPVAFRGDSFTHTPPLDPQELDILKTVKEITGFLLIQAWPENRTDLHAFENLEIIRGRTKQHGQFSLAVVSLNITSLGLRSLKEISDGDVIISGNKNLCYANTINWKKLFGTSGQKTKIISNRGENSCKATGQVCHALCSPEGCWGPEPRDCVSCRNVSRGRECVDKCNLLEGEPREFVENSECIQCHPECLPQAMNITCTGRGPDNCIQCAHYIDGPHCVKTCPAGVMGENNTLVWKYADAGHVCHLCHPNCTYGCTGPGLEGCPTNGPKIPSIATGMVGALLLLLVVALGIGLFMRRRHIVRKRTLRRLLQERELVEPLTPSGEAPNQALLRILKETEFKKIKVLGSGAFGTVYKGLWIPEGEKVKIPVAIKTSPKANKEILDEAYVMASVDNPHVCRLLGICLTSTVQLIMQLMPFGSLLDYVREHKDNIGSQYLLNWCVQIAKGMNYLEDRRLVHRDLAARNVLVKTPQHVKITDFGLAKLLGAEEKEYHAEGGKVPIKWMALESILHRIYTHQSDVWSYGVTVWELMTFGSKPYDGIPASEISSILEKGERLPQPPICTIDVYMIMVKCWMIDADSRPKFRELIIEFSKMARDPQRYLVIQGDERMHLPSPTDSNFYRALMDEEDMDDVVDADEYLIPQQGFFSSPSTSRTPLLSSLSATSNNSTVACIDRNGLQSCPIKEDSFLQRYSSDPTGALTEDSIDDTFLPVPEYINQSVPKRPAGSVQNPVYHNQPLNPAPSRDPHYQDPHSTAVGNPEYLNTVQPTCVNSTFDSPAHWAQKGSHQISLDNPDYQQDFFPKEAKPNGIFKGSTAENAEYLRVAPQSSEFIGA
ASSAY DETAILS: Biochemical EGFR kinase inhibition assay (Lance Ultra TR-FRET), triple mutant del19/T790M/C797S
REPORTED CONDITIONS: IC50 Del19/T790M/C797S (nM), 100 μM ATP
The threshold is 0.6 nM. Values of IC50 beneath it are tagged Fulfilled; values meeting or exceeding it are tagged Not fulfilled.

- CN1CCN(Cc2ccc(C#Cc3cnc(Nc4ccnc(-c5cnn(S(=O)(=O)C6CC6)c5)n4)cc3N3CCC4(CCO4)CC3)cc2)CC1 [Example 370]: Fulfilled
- O=S(=O)(C1CC1)n1cc(-c2nccc(Nc3cc(N[C@H]4CC[C@@H](O)CC4)c(C#CC4CCOCC4)cn3)n2)cn1 [Example 178]: Fulfilled
- CN(C)CC1(C)CCN(c2cc(Nc3ccnc(-c4cnn(S(=O)(=O)C5CC5)c4)n3)ncc2C#Cc2cnn(C)c2)CC1 [Example 296]: Fulfilled
- CC1(CO)CCN(c2cc(Nc3ccnc(-c4cnn(S(=O)(=O)C5CC5)c4)n3)ncc2C#Cc2ccc(CN3CCOCC3)nc2)CC1 [Example 187]: Fulfilled
- CC(C)Nc1cc(Nc2ccnc(-c3cnn(S(=O)(=O)C4CC4)c3)n2)ncc1C#Cc1cnn(C(C)C)c1 [Example 19]: Not fulfilled
- CN1CCN(Cc2ccc(C#Cc3cnc(Nc4ccnc(-c5cnn(S(=O)(=O)C6CC6)c5)n4)cc3NC[C@H]3CC[C@](C)(O)CC3)cc2)CC1 [Example 363]: Not fulfilled
- CC(C)n1cc(C#Cc2cnc(Nc3ccnc(-c4cnn(S(=O)(=O)C5CC5)c4)n3)cc2OC[C@H]2CC[C@H](CN(C)C)CC2)cn1 [Example 59]: Not fulfilled
- CC1(CO)CCN(c2cc(Nc3ccnc(-c4cnn(S(=O)(=O)C5CC5)c4)n3)ncc2C#CC2CCN(C(=O)C(F)(F)F)C2)CC1 (stereo not shown) [Example 415]: Fulfilled
- CN(C)CCC1CCCN(c2cc(Nc3ccnc(-c4cnn(S(=O)(=O)C5CC5)c4)n3)ncc2C#Cc2cnn(C)c2)C1 (stereo not shown) [Example 396]: Fulfilled
- CC1(CO)CCN(c2cc(Nc3ccnc(-c4cnn(S(=O)(=O)C5CC5)c4)n3)ncc2C#CC2CCCCC2)CC1 [Example 252]: Not fulfilled
- CN(C)C[C@H]1CC[C@@H](Nc2cc(Nc3ccnc(-c4cnn(S(=O)(=O)C5CC5)c4)n3)ncc2C#Cc2cnn(C)c2)CC1 [Example 312]: Fulfilled
- O=S(=O)(C1CC1)n1cc(-c2nccc(Nc3cc(N4[C@@H]5CC[C@H]4C[C@H](CO)C5)c(C#Cc4cnn(C(F)(F)F)c4)cn3)n2)cn1 [Example 332]: Not fulfilled
